Would you mind telling me the reported IC50 of each entry?
Target: Angiotensin II receptor (Rattus norvegicus, UniProt P29089+P25095+P35351)
Sequence (P29089 whole entry): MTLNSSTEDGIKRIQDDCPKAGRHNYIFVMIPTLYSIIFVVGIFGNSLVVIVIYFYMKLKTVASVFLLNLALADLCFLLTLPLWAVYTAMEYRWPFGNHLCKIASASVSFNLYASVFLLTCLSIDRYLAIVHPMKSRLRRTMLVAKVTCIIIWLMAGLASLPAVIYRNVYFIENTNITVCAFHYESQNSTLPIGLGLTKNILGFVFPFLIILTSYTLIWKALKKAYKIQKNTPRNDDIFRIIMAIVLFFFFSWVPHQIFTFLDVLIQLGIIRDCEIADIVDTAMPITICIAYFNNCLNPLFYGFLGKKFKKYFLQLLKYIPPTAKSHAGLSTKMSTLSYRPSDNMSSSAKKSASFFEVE
Sequence (P25095 whole entry): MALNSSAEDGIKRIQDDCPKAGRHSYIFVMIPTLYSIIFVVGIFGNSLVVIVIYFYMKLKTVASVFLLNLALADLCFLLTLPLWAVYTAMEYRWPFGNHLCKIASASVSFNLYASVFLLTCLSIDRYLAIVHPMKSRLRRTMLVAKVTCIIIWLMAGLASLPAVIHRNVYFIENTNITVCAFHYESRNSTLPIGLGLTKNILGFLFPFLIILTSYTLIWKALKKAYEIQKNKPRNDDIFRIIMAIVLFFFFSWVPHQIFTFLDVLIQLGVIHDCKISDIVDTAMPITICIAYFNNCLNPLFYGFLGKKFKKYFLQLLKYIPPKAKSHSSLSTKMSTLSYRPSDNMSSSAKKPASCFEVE
Sequence (P35351 whole entry): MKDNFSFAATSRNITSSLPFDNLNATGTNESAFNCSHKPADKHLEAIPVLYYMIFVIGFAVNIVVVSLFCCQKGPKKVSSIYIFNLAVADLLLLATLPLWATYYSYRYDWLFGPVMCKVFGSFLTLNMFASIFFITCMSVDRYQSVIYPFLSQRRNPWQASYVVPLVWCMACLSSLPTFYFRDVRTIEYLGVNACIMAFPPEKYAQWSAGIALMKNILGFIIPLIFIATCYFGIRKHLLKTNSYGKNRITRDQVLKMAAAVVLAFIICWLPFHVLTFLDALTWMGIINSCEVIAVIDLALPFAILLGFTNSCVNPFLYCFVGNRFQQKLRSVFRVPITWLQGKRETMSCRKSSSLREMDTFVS
Experiment: Inhibition of [125I]AII binding to Angiotensin II receptor, type 1 of rat mesenteric arteries
Type: protein assay
Numeric only. Scale: nM

Given the entry "CCCCc1ncc(/C=C(\Cc2cccs2)C(=O)O)n1Cc1cccc(OC)c1" , report its measured IC50.
180

Query "CCCCc1ncc(/C=C(\Cc2cccs2)C(=O)O)n1-c1ccc(C(=O)O)cc1" next
250

Query "CCCCCCc1ncc(/C=C(\Cc2cccs2)C(=O)O)n1Cc1ccc(C(=O)O)cc1" next
0.8

Query "CCCc1ncc(/C=C(\Cc2cccs2)C(=O)O)n1Cc1ccccc1Cl" next
127

Query "CCCCc1ncc(/C=C(\Cc2cccs2)C(=O)O)n1CCc1ccc(C(=O)O)cc1" next
63

Query "CCCCc1ncc(/C=C(\Cc2cccs2)C(=O)O)n1Cc1ccc(C(=O)OCC)cc1" next
27.6

Query "CCCCc1ncc(/C=C(\Cc2cccs2)C(=O)O)n1Cc1ccc(S(N)(=O)=O)cc1" next
4.5

Query "CCCCc1ncc(/C=C(\Cc2cccs2)C(=O)O)n1Cc1ccc(O)c(C)c1" next
21

Query "CCCCc1ncc(/C=C(\Cc2cccs2)C(=O)O)n1Cc1ccc(-c2nn[nH]n2)cc1" next
0.4

Query "CCCCc1ncc(/C=C(\Cc2cccs2)C(=O)O)n1Cc1cccc(Cl)c1Cl" next
46
